TARGET_OF_ASSAY: recombinant human ACE2 (rhACE2) (Homo sapiens)
Construct: purchased BPS Bioscience 79923
Sequence (Q9BYF1 18-805): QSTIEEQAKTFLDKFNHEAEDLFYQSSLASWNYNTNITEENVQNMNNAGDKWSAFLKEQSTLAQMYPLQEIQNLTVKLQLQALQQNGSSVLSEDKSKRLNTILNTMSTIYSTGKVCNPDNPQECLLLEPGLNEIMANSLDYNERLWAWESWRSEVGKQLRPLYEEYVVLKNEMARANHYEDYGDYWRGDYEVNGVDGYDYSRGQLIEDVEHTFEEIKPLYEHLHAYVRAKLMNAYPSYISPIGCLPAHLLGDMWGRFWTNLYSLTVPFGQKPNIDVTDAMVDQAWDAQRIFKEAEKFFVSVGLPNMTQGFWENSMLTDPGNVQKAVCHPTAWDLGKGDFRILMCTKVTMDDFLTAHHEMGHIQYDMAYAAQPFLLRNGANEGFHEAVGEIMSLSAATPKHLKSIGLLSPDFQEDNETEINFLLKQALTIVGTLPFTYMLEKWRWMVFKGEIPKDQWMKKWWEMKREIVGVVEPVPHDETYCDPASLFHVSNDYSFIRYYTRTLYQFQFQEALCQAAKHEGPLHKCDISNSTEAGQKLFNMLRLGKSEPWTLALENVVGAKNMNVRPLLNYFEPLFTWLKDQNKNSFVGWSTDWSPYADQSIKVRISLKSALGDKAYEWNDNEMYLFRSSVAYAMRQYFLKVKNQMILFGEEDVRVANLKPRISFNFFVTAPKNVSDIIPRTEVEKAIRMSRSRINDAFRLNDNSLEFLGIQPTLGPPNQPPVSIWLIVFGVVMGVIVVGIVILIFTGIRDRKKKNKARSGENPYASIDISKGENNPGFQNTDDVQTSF
EXPERIMENT_NOTES: ACE2 inhibitor screening assay (exopeptidase activity), CLQ and analogues, ZnCl2
Assay type: biochemical
TEST_SETTINGS: 2.5 hours, room temperature; read-out: IC50 against rhACE2 exopeptidase activity
MEASURE: IC50 (µM)
Answers are plain numbers, in µM.

Inquiry: Can you share its IC50? I mean this compound: Oc1c(I)cc(Cl)c2cccnc12 [CLQ, 5-chloro-7-iodo-8-quinolinol]
Reply text: 5.36

* * *

Test system: A549 cells
TEST_SETTINGS: read-out: Cytotoxicity CC50, 72 hours, hydrochloride
Counter-ions that a name gives are not always drawn.
MEASURE: CC50
A bare number is not enough; add the unit after it.

Inquiry: For A549 cells, provide CC50 of Nc1c(Br)cc(Br)cc1CN[C@H]1CC[C@H](O)CC1 [AMB, hydrochloride] please.
Reply text: 137 µM

* * *

EXPERIMENT_NOTES: in vitro
TEST_SETTINGS: human, Cytotoxicity CC50, A549 cells, 72 hours
MEASURE: CC50

Inquiry: Can you share its CC50? I mean this compound: CCC(CC)COC(=O)[C@H](C)N[P@](=O)(OC[C@H]1O[C@@](C#N)(c2ccc3c(N)ncnn23)[C@H](O)[C@@H]1O)Oc1ccccc1 [Remdesivir]
Reply text: > 3000 nM

* * *

EXPERIMENT_NOTES: in vitro
TEST_SETTINGS: African green monkey, 50% cytotoxic concentration (CC50), Vero E6, 72 hours; Examples A and B, highest concentration 30 μM
MEASURE: CC50

Inquiry: Can you share its CC50? I mean this molecule: Oc1c(Cl)cc(Cl)c2cccnc12 [CLCQ, 5,7-Dichloro-8-hydroxyquinoline]
Reply text: > 30 µM

* * *

TARGET_OF_ASSAY: rhACE2 and SARS-CoV-2 Spike (RBD) protein interaction (Homo sapiens, UniProt Q9BYF1)
Construct: purchased RayBiotech CoV-SACE2-1
EXPERIMENT_NOTES: Spike (RBD)-ACE2 binding assay (ELISA)
Design: species or system human; SARS-CoV-2
TEST_SETTINGS: bell-shaped model; AMB, BHH; highest tested 100 μM; read-out: Estimated Relative IC50 against rhACE2 and RBD Interaction Assay, IC50_2
Where a name gives a salt, the structure may show the parent alone.
Give measured IC50 for each item. Keep answers brief.
One number for each entry, in µM.

INSERT INTO results (molecule, uom, measured_number) VALUES
  ('Nc1c(Br)cc(Br)cc1CN[C@H]1CC[C@H](O)CC1 [AMB, hydrochloride]', 'µM', 232);

Inquiry: Can you share its IC50? I mean this molecule: CN(Cc1cc(Br)cc(Br)c1N)C1CCCCC1 [BHH, Bromhexine hydrochloride]
Reply text: 42.9

* * *

Give measured Conc. at Max. % Viability for each item. Keep answers brief.
Tested on: Vero E6 cells
TEST_SETTINGS: Vero E6; Example C (Table 4)
Counter-ions that a name gives are not always drawn. Residues, ends and D or L forms follow the SMILES beside them. *: point of attachment. Cbz = O=C(OCc1ccccc1)*; CH2F = FC*
One number for each entry, in nM.

Solved cases (4 shown):
INSERT INTO assay_data (compound, uom, measured_number) VALUES
  ('CCN(CC)CCCC(C)Nc1ccnc2cc(Cl)ccc12 (centres unmarked)', 'nM', 469),
  ('CC(C)C[C@H](NC(=O)OCc1ccccc1)C(=O)N[C@@H](CC(C)C)C(=O)N[C@@H](Cc1ccc(O)cc1)C(=O)CF [Calpain Inhibitor IV] (Cbz-Leu-Leu-Tyr-CH2F)', 'nM', 56),
  ('CCC(CC)COC(=O)[C@H](C)N[P@](=O)(OC[C@H]1O[C@@](C#N)(c2ccc3c(N)ncnn23)[C@H](O)[C@@H]1O)Oc1ccccc1', 'nM', 3750),
  ('CCOC(=O)[C@H]1O[C@@H]1C(=O)N[C@@H](CC(C)C)C(=O)NCCC(C)C', 'nM', 234);

# next compound below
Inquiry: Can you share its Conc. at Max. % Viability? I mean this compound: Nc1c(Br)cc(Br)cc1CN[C@H]1CC[C@H](O)CC1 [AMB, hydrochloride]
Reply text: 590

Origin of the recorded values: patent US20240285552A1
